Examples of molecules with documented melting point follow.
measurement-name: melting point

mol-smiles	result
I.Nc1nc(-c2ccc(Oc3ccc(-c4ccccc4)cc3)cc2)cs1	253 to 254 °C
COc1ccc(Oc2ccc(-c3csc(N)n3)cc2)cc1.I	204 to 207 °C
Cc1ccc(Oc2ccc(-c3csc(N)n3)cc2)cc1.I	118 to 120 °C
I.Nc1nc(-c2ccc(Oc3ccc(Cl)c(Cl)c3)cc2)cs1	202 to 205 °C
Cc1ccc(Sc2ccc(-c3csc(N)n3)cc2)cc1.I	182 to 185 °C
I.Nc1nc(-c2ccc(Oc3ccc(Oc4ccccc4)cc3)cc2)cs1	137 to 140 °C
I.Nc1nc(-c2ccc(Sc3ccccc3)cc2)cs1	129 to 132 °C

---

system: BT-549; test: NCI anti-tumor screen, SRB assay, 48 hour exposure; type: cell-based, human; conditions: Homo sapiens; BT-549 breast cancer cell line

mol-smiles	relation-symbol	GI50 [µM]
I.Nc1nc(-c2ccc(Oc3ccc(Oc4ccccc4)cc3)cc2)cs1	=	16.1
I.Nc1nc(-c2ccc(Oc3ccc(Cl)cc3)cc2)cs1	>	100
I.Nc1nc(-c2ccc(Oc3ccc(-c4ccccc4)cc3)cc2)cs1	=	10.4
Cc1ccc(Sc2ccc(-c3csc(N)n3)cc2)cc1.I	=	25.7
I.Nc1nc(-c2ccc(Oc3ccc(Cl)c(Cl)c3)cc2)cs1	=	1.91

---

system: MDA-MB-231/ATCC; experiment: NCI anti-tumor screen, SRB assay, 48 hour exposure; format: cell-based, human; details: MDA-MB-231/ATCC breast cancer cell line
measurement-name: GI50

compound	measurement-name	result
I.Nc1nc(-c2ccc(Sc3ccc(Cl)cc3)cc2)cs1 [Compound 27]	GI50	12.4 µM
I.Nc1nc(-c2ccc(Oc3ccccc3Cl)cc2)cs1 [Compound 19]	GI50	10.5 µM
I.Nc1nc(-c2ccc(Oc3cccc(Cl)c3)cc2)cs1 [Compound 18]	GI50	4.8 µM
I.Nc1nc(-c2ccc(Sc3ccc(Cl)c(Cl)c3)cc2)cs1 [Compound 28]	GI50	3.73 µM

---

system: MDA-MB-231/ATCC; test: NCI anti-tumor screen, SRB assay, 48 hour exposure; format: cell-based, human; conditions: Homo sapiens; MDA-MB-231/ATCC breast cancer cell line

molecule	quantity-unit	relation-symbol	GI50
I.Nc1nc(-c2ccc(Oc3ccc(-c4ccccc4)cc3)cc2)cs1 [Compound 23]	µM	=	12.6
Cc1ccc(Sc2ccc(-c3csc(N)n3)cc2)cc1.I [Compound 30]	µM	>	100
I.Nc1nc(-c2ccc(Oc3ccc(Oc4ccccc4)cc3)cc2)cs1 [Compound 24]	µM	=	12.6
I.Nc1nc(-c2ccc(Oc3ccc(Cl)c(Cl)c3)cc2)cs1 [Compound 20]	µM	=	2.29
Cc1ccc(Oc2ccc(-c3csc(N)n3)cc2)cc1.I [Compound 22]	µM	=	14.1
I.Nc1nc(-c2ccc(Oc3ccc(Cl)cc3)cc2)cs1 [Compound 17]	µM	>	100
